target.under.test: UniProt:Q14145
Sequence (Q14145 whole entry, the tested form may be a part): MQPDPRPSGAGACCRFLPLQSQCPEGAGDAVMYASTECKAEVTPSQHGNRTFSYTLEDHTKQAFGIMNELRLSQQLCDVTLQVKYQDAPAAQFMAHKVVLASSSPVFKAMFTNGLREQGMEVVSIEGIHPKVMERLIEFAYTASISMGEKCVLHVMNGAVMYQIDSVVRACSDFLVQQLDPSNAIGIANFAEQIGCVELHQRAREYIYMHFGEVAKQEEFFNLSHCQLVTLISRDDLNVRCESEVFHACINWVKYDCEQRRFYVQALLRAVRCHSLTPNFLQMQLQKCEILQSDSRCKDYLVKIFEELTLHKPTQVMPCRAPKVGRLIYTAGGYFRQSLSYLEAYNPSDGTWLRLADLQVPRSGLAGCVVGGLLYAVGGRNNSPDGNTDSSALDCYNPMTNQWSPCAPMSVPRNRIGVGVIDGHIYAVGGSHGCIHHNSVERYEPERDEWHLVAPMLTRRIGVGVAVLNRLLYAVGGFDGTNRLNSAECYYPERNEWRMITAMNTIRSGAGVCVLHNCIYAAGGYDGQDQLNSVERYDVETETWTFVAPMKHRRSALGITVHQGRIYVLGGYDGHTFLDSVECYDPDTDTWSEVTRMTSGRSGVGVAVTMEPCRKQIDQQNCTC
assay: Binding affinity to recombinant human KEAP1 Kelch domain (321 to 609 residues) expressed in Escherichia coli BL21 (DE3) by surface plasmon resonance analysis
pKd: −log10 of the molar value.
Each record here notes measured pKd.

Answered cases to consult:
| molecule | pKd |
| --- | --- |
| CCCCC1CCCN1C(=O)[C@@H]1CCC[C@H](c2cccc(-n3ncc(C(=O)O)c3C3CC3)c2)C1 (relative stereo) | 7.72 |
| O=C1NN(c2cccc(Cl)c2)C(=O)/C1=C\c1ccc(-c2ccc(C(=O)O)c(Cl)c2)o1 | < 3.82 |
| O=[N+]([O-])c1ccc(Sc2nnc(COc3ccccc3)n2-c2ccccc2)c2ncccc12 | < 3.52 |

Inquiry: Need pKd, item "O=c1c2cc3ccccc3cc2nc2c3ccccc3nc(-c3ccccc3)n12"
Reply text: ≥ 4.30

From: ChEMBL document CHEMBL4373719
